Molecular target: Calmodulin-1 (Homo sapiens) (UniProt P0DP23)
Assay: CALM1 binders on microarrays, EGTA buffer, profiling panel, biochemical, small-molecule microarray, Cy5-labelled CALM1 (AID 1111);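 also: labelled calmodulin applied in Tris saline Tween buffer holding calcium plus EGTA and DTT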
Conditions: Cy5-CALM1 binding fluorescence, higher = more signal
QUANTITY NAME: composite z-score
Provide a numeric answer; units are not to be included.

[[record]]
compound = "COCC1=C([C@H](O)CCc2ccccc2)[C@H](CO)n2c(=O)n(-c3ccccc3)c(=O)n2C1"
val = -0.357

[[record]]
compound = "CN1C(=O)[C@]2(CCS(=O)(=O)c3ccccc3)N=C(c3ccc(OCCCO)cc3)O[C@@H]2c2ccccc21"
val = 1.11

[[record]]
compound = "C=CCC(OC(C)=O)[C@@H]1[C@@H](N(Cc2cccc3ccccc23)C(=O)c2cccc3ccccc23)c2cc(OCCCO)ccc2N1C(=O)Cc1ccc2ccccc2c1 (some centres not stated)"
val = -0.603

[[record]]
compound = "CCC[C@@H]1C=C(C(=O)OCC)[C@H](c2ccccc2)N1S(=O)(=O)c1ccc(C)cc1"
val = 1.99

[[record]]
compound = "COc1cccc(OC)c1C(=O)O[C@H]1[C@@H]2OC(=O)[C@H](Cc3cccc(Br)c3)C/C=C/C[C@@H](Cc3cccc(Br)c3)C(=O)O[C@H]2[C@@H](OC)O[C@@H]1CO"
val = -0.108


Recall and state the measured composite z-score for `C=C(COC)/C(=C/C[C@@H](OC(C)=O)c1ccccc1OCCO)c1cc(C(=O)OC)ccc1OC` .
-0.249

Recall and state the measured composite z-score for `COCCOC(=O)N1C(=O)[C@@]2(c3ccccc31)[C@H](C(N)=O)[C@H]1C(=O)O[C@H](c3ccccc3)[C@H](c3ccccc3)N1[C@@H]2c1ccc(OCCO)cc1` .
0.68

----------
Experiment: MM1S myeloma cell viability, profiling panel, resazurin fluorescence, basal, 24 h, PK04 Diversity Set (AID 1174);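 also: MM1S multiple myeloma cell line; test concentration not given here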
Details: higher = more signal, called active from +8 up or from −8 down
Outcome label depends on z-score relative to -0.3: at/above gives satisfied, below gives not satisfied.

[[record]]
compound = "C=CC[C@@]1(C(=O)N(C)C)N=C(c2ccc(OCCCO)cc2)O[C@@H]1c1ccccc1"
group_label = "satisfied"

[[record]]
compound = "Cc1ccc(F)cc1S(=O)(=O)N[C@@H]1CCN(Cc2ccc3c(c2)OCO3)C1"
group_label = "not satisfied"

[[record]]
compound = "O=C1C2C=CC(C(O)c3ccc([N+](=O)[O-])cc3)N(Nc3ccccc3)C2C(=O)N1c1ccccc1 (stereo unspecified)"
group_label = "not satisfied"

[[record]]
compound = "COCCOC(=O)N1C(=O)[C@@]2(c3cc(C#CC4=CCCCC4)ccc31)[C@H](C(=O)N1CCN(c3ncccn3)CC1)[C@H]1C(=O)O[C@H](c3ccccc3)[C@H](c3ccccc3)N1[C@@H]2c1ccccc1OCCO"
group_label = "satisfied"


Given the entry `COc1ccc(NC(=O)O[C@H]2[C@H](OC(=O)Nc3ccc4c(c3)OCO4)[C@H](OC(=O)Nc3ccc4c(c3)OCO4)[C@@H](OC)O[C@@H]2CO)cc1` , answer whether its z-score meets or surpasses -0.3.
not satisfied

----------
Test: binders of probe aFST on microarray, primary screen, stem cell growth factor project, biochemical, small-molecule microarray, fluorescence 635/667 (AID 1086);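 also: score merges 667 nm fluorescence with signal-to-noise of each printed compound spot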
Details: higher = more signal
This section presents compounds with their documented composite z-score values.
Provide a numeric answer; units are not to be included.

[[record]]
compound = "CN(C)CCCC[C@@H]1NC(=O)[C@H]2C[C@@H](C(=O)O)[C@@H](c3cccc(OCCO)c3)N2C1=O"
quantity_name = "composite z-score"
val = 0.547

[[record]]
compound = "CCOC(=O)C1=C[C@@H](C(C)(C)C)N(S(=O)(=O)c2ccc(C)cc2)[C@H]1c1ccccc1Cl"
quantity_name = "composite z-score"
val = 1.07

[[record]]
compound = "COCCn1c(C(=O)N2CCCC2)cc2c1C[C@H]1CN(C(=O)c3ccccc3)[C@@](Cc3ccccc3)(C(=O)OC)[C@@H]21"
quantity_name = "composite z-score"
val = 1.11

[[record]]
compound = "CCCCC(O)C1C=CC2C(=O)NC(=O)C2N1Nc1ccccn1 (stereo not given)"
quantity_name = "composite z-score"
val = 0.0344

[[record]]
compound = "CN1C(=O)[C@]2(CCC(=O)OC(C)(C)C)N=C(c3ccc(OCCCO)cc3)O[C@@H]2c2ccccc21"
quantity_name = "composite z-score"
val = 0.898

[[record]]
compound = "[N-]=[N+]=Nc1ccccc1[C@@H]1OC(c2ccc(OCCCO)cc2)=N[C@]1(Cc1ccccc1)C(N)=O"
quantity_name = "composite z-score"
val = 0.277

[[record]]
compound = "CC(C)CNC(=O)[C@@]1(C)c2ccccc2C(=O)N(Cc2cc(F)cc(C(F)(F)F)c2)[C@H]1c1ccc(CO)cc1"
quantity_name = "composite z-score"
val = 0.0289

[[record]]
compound = "CCOC(=O)C1=C(C(=O)OCC)N(S(=O)(=O)CC[Si](C)(C)C)[C@H](c2ccccc2)CC1"
quantity_name = "composite z-score"
val = 0.917


Recall and state the measured composite z-score for `COC(=O)[C@@]1(Cc2ccc(F)cc2)[C@H]2c3cc(C(=O)N(C)C)n(CCn4cc([N+](=O)[O-])nc4C)c3C[C@H]2CN1C(=O)c1ccccc1` .
0.593

Recall and state the measured composite z-score for `COCCOC(=O)N1C(=O)[C@@]2(c3ccccc31)[C@H](c1ccc(OCCO)cc1)N1[C@H](c3ccccc3)[C@H](c3ccccc3)OC(=O)[C@H]1[C@@H]2C(=O)N1CCN(c2ncccn2)CC1` .
0.742

Recall and state the measured composite z-score for COc1cc2c(cc1O)C(c1ccc(CN3CCCC3)cc1)N(Cc1ccc([N+](=O)[O-])o1)CC2 (stereo not given) .
-0.21

Recall and state the measured composite z-score for `C=CCN1C(=O)[C@]2(O[C@H](CCO)[C@@H]([Si](C)(C)c3ccc(OC)cc3)[C@@H]2C)c2ccccc21` .
-0.488
